Avg. FPF for assorted compounds
experimentalProtocol: Emitted dose and fine particle fraction
Assay type: physicochemical
runParameters: fine particle fraction = percent of total dose collected less than 5.6 microns; formulation % w/v: buprenorphine 0.2, buspirone 2.0, cyclobenzaprine 2.0, triazolam 0.1, zolpidem 0.2; n=3-5 runs

CN(C)CCC=C1c2ccccc2C=Cc2ccccc21 [Cyclobenzaprine] : 94.35 % of Emitted
Cl.O=C1CC2(CCCC2)CC(=O)N1CCCCN1CCN(c2ncccn2)CC1 [Buspirone] : 91.60 % of Emitted

Would you kindly share the measured Avg. FPF for Cc1ccc(-c2nc3ccc(C)cn3c2CC(=O)N(C)C)cc1 [Zolpidem] ? 93.25 % of Emitted

Quick one: Cc1nnc2n1-c1ccc(Cl)cc1C(c1ccccc1Cl)=NC2 [Triazolam] 86.16 % of Emitted

###

The following compounds are listed with their measured Avg. Emitted Dose per Actuation values.
experimentalProtocol: Emitted dose and fine particle fraction
Assay type: physicochemical
runParameters: 10 second actuations; formulation % w/v: buprenorphine 0.2, buspirone 2.0, cyclobenzaprine 2.0, triazolam 0.1, zolpidem 0.2; average of n=3-5 runs
Respond numerically; units are µg and should not be typed.

CN(C)CCC=C1c2ccccc2C=Cc2ccccc21 : 836.16

What does the data say about its Avg. Emitted Dose per Actuation? Entry: "Cl.O=C1CC2(CCCC2)CC(=O)N1CCCCN1CCN(c2ncccn2)CC1" 1010.44

Input "Cc1ccc(-c2nc3ccc(C)cn3c2CC(=O)N(C)C)cc1" 92.55

Also, "Cc1nnc2n1-c1ccc(Cl)cc1C(c1ccccc1Cl)=NC2" please. 46.46
